target: 3-phosphoinositide-dependent protein kinase 1 (Homo sapiens) (UniProt O15530); details: at 0.1 µM;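 also: values are mean inhibition of PDK1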
Sequence (O15530 whole entry): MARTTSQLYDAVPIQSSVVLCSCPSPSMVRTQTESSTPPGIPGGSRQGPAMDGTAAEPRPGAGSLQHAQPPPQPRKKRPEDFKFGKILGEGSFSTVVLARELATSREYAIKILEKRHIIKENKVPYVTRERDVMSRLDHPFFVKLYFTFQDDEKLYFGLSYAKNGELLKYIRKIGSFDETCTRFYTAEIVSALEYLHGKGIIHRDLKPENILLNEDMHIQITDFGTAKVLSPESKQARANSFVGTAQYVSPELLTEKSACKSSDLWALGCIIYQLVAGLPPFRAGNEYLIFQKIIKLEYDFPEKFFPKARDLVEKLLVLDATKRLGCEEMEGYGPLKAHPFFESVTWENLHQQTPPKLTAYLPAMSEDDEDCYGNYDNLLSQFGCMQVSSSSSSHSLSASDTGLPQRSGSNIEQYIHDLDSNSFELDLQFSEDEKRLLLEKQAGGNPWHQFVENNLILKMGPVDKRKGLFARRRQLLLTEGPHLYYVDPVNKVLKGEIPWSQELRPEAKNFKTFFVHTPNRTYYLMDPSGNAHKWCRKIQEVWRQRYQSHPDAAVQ
Assign inhibition to each entry below.
Numbers only, in %.

// sample `COc1cc2c(cc1Nc1nc(Nc3ccsc3C(N)=O)c3cc[nH]c3n1)N(C(=O)CN(C)C)CCC2(C)C` , its inhibition was 2.56

// sample `CN(C)CCOc1ccc(-c2nc(-c3ccncc3)c(-c3ccc4c(c3)CC/C4=N\O)[nH]2)cc1` , its inhibition was 0.77

State the recorded inhibition for every item in the following list.
1. Cc1cccc(Nc2ncc(-c3ccccc3)o2)c1
2. COc1ccc(-c2oc3ncnc(N)c3c2-c2ccc(NC(=O)Nc3cc(C(F)(F)F)ccc3F)cc2)cc1
3. CC(C)(CO)CNC(=O)c1ccc2c(c1)/C(=N/Nc1ccc(S(N)(=O)=O)cc1)C(=O)N2

Response line:
[1.5, 1.13, 13.1]

State the recorded inhibition for every item in the following list.
1. CC(=O)Nc1cccc(C#Cc2cncnc2Nc2ccc(OCc3cccc(F)c3)c(Cl)c2)c1
2. COC(=O)Nc1nc2ccc(Oc3ccc(NC(=O)Nc4cccc(Cl)c4)cc3)cc2[nH]1
3. CCn1c(-c2nonc2N)nc2c(C#CC(C)(C)O)ncc(OC3CCNCC3)c21
4. CC(=O)NCc1cccc(C#Cc2cncnc2Nc2ccc(OCc3cccc(F)c3)c(Cl)c2)c1

Response line:
1: 2.17; 2: -0.86; 3: 2.52; 4: 0.04

---

biological target: Mitogen-activated protein kinase 14 (Homo sapiens) (UniProt Q16539); conditions: at 1 µM;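 also: values are mean percent inhibition of p38alpha kinase activity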
Sequence (Q16539 whole entry): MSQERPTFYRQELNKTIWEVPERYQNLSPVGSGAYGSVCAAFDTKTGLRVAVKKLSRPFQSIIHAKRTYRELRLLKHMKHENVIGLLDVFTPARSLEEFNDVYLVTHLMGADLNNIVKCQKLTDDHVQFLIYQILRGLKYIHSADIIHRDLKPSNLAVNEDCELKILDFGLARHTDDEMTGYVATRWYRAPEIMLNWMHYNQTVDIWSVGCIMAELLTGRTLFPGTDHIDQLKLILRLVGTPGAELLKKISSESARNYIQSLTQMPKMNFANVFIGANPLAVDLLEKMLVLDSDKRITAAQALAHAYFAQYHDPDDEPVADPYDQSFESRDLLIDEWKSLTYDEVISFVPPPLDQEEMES
Measured Property: inhibition (%)
Numbers only, in %.

// sample `Cc1ccc(O)cc1Nc1ccnc2cc(-c3ccccn3)ccc12` , its inhibition was 58.8

// sample `CCn1c(-c2nonc2N)nc2ccccc21` , its inhibition was 4.34

// sample `Cc1cccc(Nc2ncc(-c3ccccc3)o2)c1` , its inhibition was 6.59

// sample `Nc1ncc(-c2cccc(S(N)(=O)=O)c2)c2scc(-c3ccc(F)c(Cl)c3)c12` , its inhibition was 55.9

// sample `Cc1cccc2c1NC(=O)/C2=N\Nc1ccc(S(N)(=O)=O)cc1` , its inhibition was 5.54

State the recorded inhibition for every item in the following list.
1. Fc1cccc(COc2ccc(Nc3ncnc4sc(-c5ccco5)cc34)cc2Cl)c1
2. CCn1c(-c2nonc2N)nc2c(C#CC(C)(C)O)ncc(OC3CCNCC3)c21
3. COC(=O)c1sc(-n2cnc3cc(OC)c(OC)cc32)cc1OCc1ccccc1C(F)(F)F
4. CS(=O)(=O)CCNCc1ccc(-c2ccc3ncnc(Nc4ccc(OCc5ccccc5)c(C(F)(F)F)c4)c3c2)o1
5. COc1ccc(-c2oc3ncnc(N)c3c2-c2ccc(NC(=O)Nc3cc(C(F)(F)F)ccc3F)cc2)cc1

Response line:
1: 6.29; 2: 11.3; 3: 9.56; 4: 2.96; 5: 30.4

---

biological target: Serine/threonine-protein kinase PAK 2 (Homo sapiens) (UniProt Q13177); settings: at 0.1 µM;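 also: values are mean percent inhibition of PAK2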
Sequence (Q13177 whole entry): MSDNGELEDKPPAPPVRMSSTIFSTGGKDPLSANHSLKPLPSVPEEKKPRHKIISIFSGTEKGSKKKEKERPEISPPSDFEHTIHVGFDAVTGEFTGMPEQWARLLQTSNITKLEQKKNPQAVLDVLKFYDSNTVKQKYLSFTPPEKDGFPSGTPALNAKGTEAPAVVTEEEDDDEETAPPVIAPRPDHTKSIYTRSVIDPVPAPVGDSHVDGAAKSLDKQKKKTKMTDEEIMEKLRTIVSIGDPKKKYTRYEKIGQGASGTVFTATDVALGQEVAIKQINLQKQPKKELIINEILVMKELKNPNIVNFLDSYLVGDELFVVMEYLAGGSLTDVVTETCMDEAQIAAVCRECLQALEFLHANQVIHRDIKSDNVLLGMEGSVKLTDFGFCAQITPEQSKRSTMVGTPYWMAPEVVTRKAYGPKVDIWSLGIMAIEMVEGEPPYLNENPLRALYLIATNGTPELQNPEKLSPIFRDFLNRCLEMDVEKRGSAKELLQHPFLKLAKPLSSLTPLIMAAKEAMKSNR
Measured Property: inhibition
Returns: string containing the numeric result and its unit.

State the recorded inhibition for every item in the following list.
1. CCN1CCC(CC(=O)Nc2n[nH]c3nnc(-c4cccc(F)c4F)cc23)CC1
2. COc1cccc(-n2ncc3c(N/N=C/c4ccc(F)cc4)ncnc32)c1
3. CCn1c(-c2nonc2N)nc2ccccc21

Response line:
2.09%
2.32%
3.34%

State the recorded inhibition for every item in the following list.
1. COc1cccc(-c2c[nH]c3c(N/N=C/c4ccncc4)ncnc23)c1
2. Nc1nc(-c2ccc(F)cc2)c(-c2ccc3ncccc3n2)s1
3. CS(=O)(=O)CCNCc1coc(-c2ccc3ncnc(Nc4ccc(OCc5ccccc5)cc4)c3c2)c1
4. CCCN(CCS(C)(=O)=O)Cc1ccc(-c2ccc3ncnc(Nc4ccc(OCc5cccc(F)c5)c(Cl)c4)c3c2)o1
5. CNC(=O)c1cncc(/C=C/c2ccccc2Cl)c1

Response line:
["0.94%", "1.67%", "0.82%", "0.72%", "0.07%"]

The values you see were collected from ChEMBL document CHEMBL1961873.
